- System: canine blood-perfused tracheal preparation
- Experiment Summary: Canine blood-perfused tracheal preparation in situ: intraluminal pressure decrease and perfused-blood flow increase
- Assay type: in vivo
- Details: canine blood-perfused tracheal preparation in situ
- Method: Reference will now be made to pharmacological effects of the compounds according to the present invention. The bronchodilator action was represented by a dose (C), μg, of a compound required for decreasing the intraluminal pressure by 20 cm H2 O and the vasodilator action was represented by a dose (D), μg, of the compound required for increasing the perfused-blood flow by 5 ml/min.
Label scheme for D: dose required for 5 ml/min increase in the perfused-blood flow (vasodilator action): lower than 0.4 µg is label 0, 0.4 µg and above is label 1.

The following compounds have reported results that may help.
> print(dat)
                                   compound  category
1  CSc1ccc(C(=O)C(C)CN2CCCCC2)cc1 (stereo not shown) [Compound 51]   label 1
2  CC(C)NCC(O)c1ccc(O)c(O)c1 (stereo not shown) [isoproterenol, reference compound]   label 0
3  CCSc1ccc(C(=O)C(C)CN2CCCCC2)cc1 (stereo not shown) [Compound 29]   label 1
4  CC(C)(C)NCC(O)c1cc(O)cc(O)c1 (stereo not shown) [terbutaline]   label 0

Reported D: dose required for 5 ml/min increase in the perfused-blood flow (vasodilator action) at or above 0.4 µg? CCCCS(=O)(=O)c1ccc(C(=O)C(C)CN2CCCCC2)cc1 (stereo not shown) [Compound 36]
label 1

Reported D: dose required for 5 ml/min increase in the perfused-blood flow (vasodilator action) at or above 0.4 µg? COc1cc(CC2NCCc3cc(O)c(O)cc32)cc(OC)c1OC (stereo not shown) [trimetoquinol]
label 0

----------
Assignment: determine reported B: dose required for 30 ml/min increase in the perfused-blood flow (vasodilator action) for the given compounds.
- System: canine femoral arterial preparation
- Experiment Summary: Vasodilating action in the canine anesthetized femoral arterial preparation (close arterial injection)
- Type: in vivo
Give bare numbers, in µg.

Answered cases to consult:
> print(dat)
                                   compound  endpoint.value
1  CCSc1ccc(C(=O)C(C)CN(C)C)cc1 (stereo not shown)             350
2  CSc1ccc(C(=O)C(C)CN2CCN(C)CC2)cc1 (stereo not shown)             430
3  CC[S+]([O-])c1ccc(C(=O)C(C)CN2CCCCC2)cc1 (stereo not shown)             700
4  CCCC[S+]([O-])c1ccc(C(=O)C(C)CN2CCCCC2)cc1 (stereo not shown)             460
5  CC(C)NCC(O)c1ccc(O)c(O)c1 (stereo not shown) [isoproterenol, reference compound]          0.0053
6  CSc1ccc(C(=O)C(C)CN2CCCC2)cc1 (stereo not shown)              43

Okay, next one:
# B: dose required for 30 ml/min increase in the perfused-blood flow (vasodilator action) lookup, item CCSc1ccc(C(=O)C(C)CN2CCCC2)cc1 (stereo not shown)
175

----------
- Test system: canine blood-perfused tracheal preparation
- Experiment Summary: Canine blood-perfused tracheal preparation in situ: intraluminal pressure decrease and perfused-blood flow increase
- Format: in vivo
- Details: based on reference D/C value 1 for isoproterenol
- Method: Reference will now be made to pharmacological effects of the compounds according to the present invention. The bronchodilator action was represented by a dose (C), μg, of a compound required for decreasing the intraluminal pressure by 20 cm H2 O and the vasodilator action was represented by a dose (D), μg, of the compound required for increasing the perfused-blood flow by 5 ml/min.
Label scheme for D/C × 10: selectivity: lower than 4 is false (0), 4 and above is true (1).

The following compounds have reported results that may help.
> print(dat)
                                   compound   category
1  CC(C)(C)NCC(O)c1ccc(O)c(CO)c1 (stereo not drawn)  false (0)
2  COc1cc(CC2NCCc3cc(O)c(O)cc32)cc(OC)c1OC (stereo not drawn)  false (0)
3  CCSc1ccc(C(=O)C(C)CN2CCCCC2)cc1 (stereo not drawn)   true (1)

Reported D/C × 10: selectivity at or above 4? CCCCS(=O)(=O)c1ccc(C(=O)C(C)CN2CCCCC2)cc1 (stereo not drawn)
false (0)

Reported D/C × 10: selectivity at or above 4? CSc1ccc(C(=O)C(C)CN2CCCCC2)cc1 (stereo not drawn)
true (1)

----------
Assignment: determine reported EC50 for the given compounds.
- Test system: guinea-pig isolated tracheal smooth muscles
- Experiment Summary: Relaxant action on guinea-pig isolated tracheal chain contracted by histamine
- Details: Cavia porcellus; contracted by 10^-4 M histamine; read-out: A: 50% effective amount for the guinea-pig isolated tracheal smooth muscles (50% relaxation)
Numbers only, in µM.

> print(dat)
                                   compound  measured.quantity  units  endpoint.value
1  CSc1ccc(C(=O)C(C)CN2CCCC2)cc1 (centres unmarked)               EC50     µM               6
2  CSc1ccc(C(=O)C(C)CN(C)C)cc1 (centres unmarked)               EC50     µM               6
3  CSc1ccc(C(=O)C(C)CN2CCN(C)CC2)cc1 (centres unmarked)               EC50     µM             200
4  CCSc1ccc(C(=O)C(C)CN2CCCCC2)cc1 (centres unmarked)               EC50     µM               2
5  CCCC[S+]([O-])c1ccc(C(=O)C(C)CN2CCCCC2)cc1 (centres unmarked)               EC50     µM              60

Okay, here is my list. What is EC50 for each of these?
1. CCSc1ccc(C(=O)C(C)CN2CCCC2)cc1 (centres unmarked)
2. CC[S+]([O-])c1ccc(C(=O)C(C)CN2CCCCC2)cc1 (centres unmarked)
3. CCCCS(=O)(=O)c1ccc(C(=O)C(C)CN2CCCCC2)cc1 (centres unmarked)
4. CCS(=O)(=O)c1ccc(C(=O)C(C)CN2CCCCC2)cc1 (centres unmarked)
5. CC(CN1CCCCC1)C(=O)c1ccc(S(C)(=O)=O)cc1 (centres unmarked)
6. CCSc1ccc(C(=O)C(C)CN2CCOCC2)cc1 (centres unmarked)
7. CSc1ccc(C(=O)C(C)CN2CCCCC2)cc1 (centres unmarked)

[30, 200, 20, 60, 60, 100, 6]

Okay, here is my list. What is EC50 for each of these?
1. CC(C)NCC(O)c1ccc(O)c(O)c1 (centres unmarked) [isoproterenol, reference compound]
2. CC(CN1CCCCC1)C(=O)c1ccc(S(=O)(=O)c2ccccc2)cc1 (centres unmarked)
3. CCSc1ccc(C(=O)C(C)CN(C)C)cc1 (centres unmarked)
4. CC(CN1CCCCC1)C(=O)c1ccc([S+](C)[O-])cc1 (centres unmarked)
5. CCSc1ccc(C(=O)C(C)CN(CC)CC)cc1 (centres unmarked)

1: 0.005; 2: 20; 3: 60; 4: 300; 5: 60

----------
- Test system: canine femoral arterial preparation
- Experiment Summary: Vasodilating action in the canine anesthetized femoral arterial preparation (close arterial injection)
- Type: in vivo
Measured Quantity: B: dose required for 30 ml/min increase in the perfused-blood flow (vasodilator action) (µg)
Give bare numbers, in µg.

> print(dat)
                                   compound  units  endpoint.value
1  CCS(=O)(=O)c1ccc(C(=O)C(C)CN2CCCCC2)cc1 (stereo not shown) [Compound 22]     µg             580
2  CCSc1ccc(C(=O)C(C)CN2CCOCC2)cc1 (stereo not shown) [Compound 25]     µg             100
3  CC(CN1CCCCC1)C(=O)c1ccc([S+](C)[O-])cc1 (stereo not shown) [Compound 4]     µg             800
4  CCSc1ccc(C(=O)C(C)CN(CC)CC)cc1 (stereo not shown) [Compound 55]     µg             270
5  CSc1ccc(C(=O)C(C)CN2CCCCC2)cc1 (stereo not shown) [Compound 51]     µg             240

Okay, here is my list. What is B: dose required for 30 ml/min increase in the perfused-blood flow (vasodilator action) for each of these?
1. CSc1ccc(C(=O)C(C)CN(C)C)cc1 (stereo not shown) [Compound 48]
2. CCSc1ccc(C(=O)C(C)CN2CCCCC2)cc1 (stereo not shown) [Compound 29]
3. CCCCS(=O)(=O)c1ccc(C(=O)C(C)CN2CCCCC2)cc1 (stereo not shown) [Compound 36]
4. CC(CN1CCCCC1)C(=O)c1ccc(S(=O)(=O)c2ccccc2)cc1 (stereo not shown) [Compound 42]
5. CC(CN1CCCCC1)C(=O)c1ccc(S(C)(=O)=O)cc1 (stereo not shown) [Compound 16]

1: 100; 2: 180; 3: 360; 4: 175; 5: 750

Entry source: patent US4237141A
